# Test: yeast display, Sf9 membrane polyspecificity reagent, FACS + sequencing; frameworks hold sequencing errors
Property name: polyreactivity (PSR sort gate)

ordered_residues=QVQLEESGGGLVQAGGSLRLSCAASGSTSTYNAMGWYRQAPGKERELVAAITESGGSTYYADSVKGRFTISRDNAKNTVYLQMNSLKPEDTAVYYCNTGYGLVDFLYGYYYWGQGTQVTVSS result="low polyreactivity"
ordered_residues=QVQLVESGGGLVQAGGSLRLSCAASGSTFYANVMGWYRQAPGKERELVAAIRWSGSSTYYADSVKGRFTISRDNAKNTVYLQMNSLKPEDTAVYYCNARYDFSYDYWGQGTQVTVSS result="low polyreactivity"

###

# Test: yeast display, Sf9 membrane polyspecificity reagent, FACS + sequencing; frameworks hold sequencing errors
Property name: polyreactivity (PSR sort gate)

ordered_residues=QVQLVESGGGLVQAGGSLRLSCAASGLTFYVYAMGWYRQAPGKEREFVAAISWSGTSTSYADSVKGRFTISRDNAKNTVYLQMNSLKPEDTAVYYCAADSFASVYFGTGYDYWGQGTQVTVSS property_name="polyreactivity (PSR sort gate)" result="low polyreactivity"
ordered_residues=QVQLVESGGGLVQAGGSLRLSCAASGRIFWPYAMGWYRQAPGKERELVAAISWGDGTTYYADSVKGRFTISRDNAKNTVYLQMNSLKPEDTAVYYCAVELWPDYVTDIRYYDGFDYWGQGTQVTVSS property_name="polyreactivity (PSR sort gate)" result="low polyreactivity"
ordered_residues=QVQLVESGGCLVQAGGSLRLSCAASGSIFSRNVMGWYRKAPGKERELVAAITGSGGRTYYADSVKGRFTISRDNAKNTVYLQMNSLKPEDTAVYYCAKSRPGTYDYWGPGTQVTVSS property_name="polyreactivity (PSR sort gate)" result="high polyreactivity"
ordered_residues=QVQLVESGGGLVQAGGSLRLSCAASGRIFVGYAMGLYRQAPGKEREFVATITFSGSSTYYADSVKGRFTISRDNAKNTVYIQMNSLKPEDTAVYYCAVTLEDYTYVYWGQGTQVTVSS property_name="polyreactivity (PSR sort gate)" result="low polyreactivity"
ordered_residues=QVQLVESGGGLVQAGGSLRLSCAASGRTFSYYTMGWDRQAPGKERELVASITSDSSTNYADSVKGRFTISRDNAKNTVYLQMNSLKPEHTAVYYCAADHWIAPRRDYWGQGTQVTVSS property_name="polyreactivity (PSR sort gate)" result="low polyreactivity"
ordered_residues=QVQLVESVGGLVQAGGSLRLSCAASGRIFGRYAMGWYRQAPGKESELVAAISTNGGRTYYADSVKGRFTISRDNAKNTVYLQRKSLKPEDNADYYCARAYRGPGYVIRYDYWGQGTQVTVSS property_name="polyreactivity (PSR sort gate)" result="high polyreactivity"
ordered_residues=QVQLVESGGGLVQAGGSLRLSCAASGSTFAGYAMGWYRQAPGKERELVAAISKSGGSTYYADSVKGRFTISRDNAKNTVYLQMNSLKPEDTAVYYCAARGGLPDGQGYYYWGQGTQVTVSS property_name="polyreactivity (PSR sort gate)" result="high polyreactivity"
ordered_residues=QVQLVESGGGLVQAGGSLRLSCAASGIIFPYYAMGWYRQAPGKERELVAGISWSGGSTYYADSVKGRFTISRDNAKNTVYLQMNSLKPEDTAVYYCAADYPATPDDDYWGQGTQVTVSS property_name="polyreactivity (PSR sort gate)" result="high polyreactivity"
ordered_residues=QVQLVESGGGLVQAGGSLRLSCAASGSIFDPYGMGWYRQAPGKERELVAAISSSDGSTYYADSVKGRFTISRDNAKNTVYLQMNSLKPEDTAVYFCAAETYGTNSSNTVYRWKYDYWGQGTQVTVSS property_name="polyreactivity (PSR sort gate)" result="low polyreactivity"
ordered_residues=QVQLVESGGGLVQAGGSLRLSCAASGSIFINNAMGWYRQAPGKERELVAAISSSGTTYYADSVKGRFTISRDNAKNSVYLQMNSLKPEDTAVYYCNARYSLHSYYCFIYDSWGQGTKVTVSS property_name="polyreactivity (PSR sort gate)" result="low polyreactivity"
ordered_residues=QVQLVESGGGLVQAGGSLRLSCAASGSTLYPYAMGWYRQAPGKERELVAVITKSGGRTYYADSVKGRFTISRDNAKNTVYLQMNSLKPEDTAVYYCAAKSTYGRLGGDSWGQGTQVTVSS property_name="polyreactivity (PSR sort gate)" result="high polyreactivity"
ordered_residues=QVQLVQSGGGLVQAGGSLRLSCAASGSTFRRKVMGWYRQAPGKETELVAAISWSGTSTNYADSEKGRFTISRDNAKNTVYLQMNSVKPEDTAVYYCATQSLYYRWGLDYWGQGTEVTVSS property_name="polyreactivity (PSR sort gate)" result="high polyreactivity"
ordered_residues=QVQLVESGGGLVHAGGSLRLSCAASGTTLAIYAMGWYRQAPGKERELVASISRVGSTNYADSVKGRFTISRDNAKNTVYLQRNSLKPEDTAVYYCAARRSSYVILRAYYYWGQGTQVTVSS property_name="polyreactivity (PSR sort gate)" result="high polyreactivity"
ordered_residues=QVQLVESGGGLVQAGGSLRLSCAASGFTLDWYVMGWYRQAPGKERELVAAISSSGGRTYYADSVKGRFTISRDNAKNTVYLQMNSLKPEDPAVYYCAARNKYGGYPYGYDYWGQGTQVTVSS property_name="polyreactivity (PSR sort gate)" result="high polyreactivity"
ordered_residues=QVQLVESGGGLVQAGGSLRLSCAASGSIFWRNVMGWYRQAPGKERELVAAISSGGSTYYADSVKGRFTISRDNAKNTVYLQMNSLKPEDTAVYYCAAPRYDYWGQGTQVTVSS property_name="polyreactivity (PSR sort gate)" result="high polyreactivity"
ordered_residues=QVQLLESGGGLVQAGGSLRLSCAASGSTFKKNAMGWYRQAPGKETELVAAISGIGTRTSYADSLKGRFTISRDNAKNTVYLQMNRLKPEDTAVYYCAARYYGFPSTLKYDYWGQGTQVTVSS property_name="polyreactivity (PSR sort gate)" result="high polyreactivity"
ordered_residues=QVQLVESGGGLVQAGGSLRLSCAASGSTFGWYAMGLYRQAPGKERELVATISSGGSTYYADSVKGRFTISRDNAKNTVYLQMNSLKPEDTAVYYCAADYWTYEYPGYDYWGQGTQVTVSS property_name="polyreactivity (PSR sort gate)" result="low polyreactivity"
ordered_residues=QVQLVESGGGLVQAGGSLRLSCAASGSIFYTYAMGWYRQAPGKERELVATIRVSGVSTYADSVKGRFTISRDNAKNTVYLQMNSLKPEDTAVYYCNKVSFYEPIYWQQGYVLLDYWGQGTQVTVSS property_name="polyreactivity (PSR sort gate)" result="low polyreactivity"
ordered_residues=QVQLVESGGGLVQAGGSLRLSCAASGRIFGHYAIGWYRKAPGKERELVAAISTSGGSTYYADSVKGRFTISRDNAKNTVYLQMNSLKPEDTAVYYCAASVVYYPYDYWGQGTQVTVSS property_name="polyreactivity (PSR sort gate)" result="high polyreactivity"
ordered_residues=QVQLVESGGGLVQAGGSLRLSCAASGRIFYYYAMGWYRQAPGKERELVAAISWSGGSTYYADSVKGRFTISRDNAKNTVYLQMNSLKPEDTAVYYCAAESRKYREYYYWGQGTQVTVSS property_name="polyreactivity (PSR sort gate)" result="high polyreactivity"
ordered_residues=QVQLVQSGGGLVQAGGSLRLSCAGSGYILQINAMGWYRQAPGKERELVAAISISGGNTYYADSVKGRFTNSRDNAKNTVYLQMNSLKPEDSAVYYCAAYRFYSYLVRYGLLLAYYYWGQGTQVTVSS property_name="polyreactivity (PSR sort gate)" result="low polyreactivity"

Source of measurements: the nanobody polyreactivity screen of Harvey et al. (2022)
